test: Antiproliferative activity against human U373 MG cells assessed as reduction in cell growth measured for 72 hrs by MTT assay; assay type: functional, cell-based, U-373MG ATCC
parameter_measured: IC50 (µM)
API: value field is a number in µM; no unit string.

[Q] // returns reported IC50 for input O=C1NC(=O)c2c1c1[nH]cnc1c1[nH]c3ccccc3c21 [GRANULATIMIDE]
[A] 6

* * *

test system: CCF-STTG1; assay: Cytotoxicity against human CCF-STTG1 cells assessed as reduction in cell viability incubated for 48 hrs by MTT assay; format: functional, cell-based; conditions: CCF-STTG1, 48 h
Below, each entry is listed with its recorded pIC50.
Please report pIC50 as the negative decimal logarithm of the molar concentration, giving only the number.

{"mol_smiles": "O[C@H]1[C@H]2c3cc4c(cc3C=[N+]3CCC(=C[C@@H]1O)[C@H]23)OCO4", "reported_result": 4.99}
{"mol_smiles": "CC(=O)O[C@H]1C=C[C@]23c4cc5c(cc4[C@H](OC(C)=O)N(C[C@H]2O)[C@@H]3C1)OCO5", "reported_result": 4.57}
{"mol_smiles": "Oc1cc2c3c(c1O)c1cc4c(cc1c[n+]3CC2)OCO4", "reported_result": 4.99}

[Q] Suppose we examine the compound COc1cc2c(cc1O)[C@H](OC(C)=O)N1C[C@@H](O)[C@]23C=C[C@H](OC)C[C@@H]13 ; what pIC50 value has been reported?
[A] 4.53

* * *

Collected pIC50 values appear next to each entry.
assay: Cytotoxicity against human CHG-5 cells assessed as reduction in cell growth incubated for 48 hrs by MTT assay; type: functional, cell-based; settings: CHG-5, 48 h
Lab note: report pIC50 as minus log10 of the concentration in molar units, number only.

As a guide, the following entries are already answered.
{"mol_smiles": "CO[C@@H]1C=C[C@@]23c4cc5c(cc4CN(CCc4ccccc4)[C@@H]2CN(C)[C@H]3C1)OCO5", "reported_result": 4.75}
{"mol_smiles": "CN[C@H]1C[C@H](OC)C=C[C@@]12C(=O)N(CCCC(=O)O)Cc1cc3c(cc12)OCO3", "reported_result": 4.91}

Attention now shifts to the item below.
[Q] What does the record list as pIC50 for CO[C@@H]1C=C[C@@]23c4cc5c(cc4CN(CCc4ccc(O)cc4)[C@@H]2CN(C)[C@H]3C1)OCO5 ?
[A] 4.38

* * *

test system: U-87 MG; test: Antiproliferative activity against human U-87 MG cells assessed as reduction in cell viability incubated for 72 hrs by WST-8 reagent based assay; assay type: functional, U-87MG ATCC
parameter_measured: pEC50
// field semantics: pEC50 = negative decimal log of concentration (mol/L)

[Q] Param item = Cn1nnc2c(C(N)=O)ncn2c1=O [TEMOZOLOMIDE] ; retrieve measured pEC50.
[A] 4.38

[Q] Requested field: pEC50. Item: COc1ccc(Cc2nccc3cc(OC)c(OC)cc23)cc1OC
[A] 4.38

[Q] Name the recorded pEC50 for COc1ccc2c3c(c4cc(OC)c(OC)cc4c2c1)CN1CCC[C@H]1C3 .
[A] 4.54

* * *

Listing of recorded IC50 by entry.
assay: Cytotoxicity against human SHG-44 cells assessed as reduction in cell growth incubated for 48 hrs by MTT assay; assay type: functional, cell-based; details: SHG-44, 48 h
Kindly answer with a numeric value in µM, unit omitted.

{"mol_smiles": "CO[C@@H]1C=C[C@@]23c4cc5c(cc4CN(CCc4ccc(O)cc4)[C@@H]2CN(C)[C@H]3C1)OCO5", "IC50 (µM)": 43.7}
{"mol_smiles": "CO[C@@H]1C=C[C@@]23c4cc5c(cc4CN(CCc4ccccc4)[C@@H]2CN(C)[C@H]3C1)OCO5", "IC50 (µM)": 15.4}

// moving on: another record for IC50
[Q] Looking for the measured IC50 of CN[C@H]1C[C@H](OC)C=C[C@@]12C(=O)N(CCCC(=O)O)Cc1cc3c(cc12)OCO3 , can you help?
[A] 10.8

* * *

tested on: U-118-MG; assay: Cytotoxicity against human U-118-MG cells assessed as reduction in cell viability measured after 24 hrs by MTT assay; type: functional, cell-based
parameter_measured: pIC50
For clarity, pIC50 is expressed as the negative log10 of concentration in mol/L.

[Q] Checklist item: pIC50 tested on U-118-MG, entry COc1cc2c(cc1OC)[C@@]13CCN4CC5=CCO[C@H]6CC(=O)N2[C@H]1[C@H]6[C@H]5C[C@H]43 , value?
[A] 3.27

* * *

molecular target: Dual specificity tyrosine-phosphorylation-regulated kinase 1A (Homo sapiens, UniProt Q13627); experiment: Inhibition of DYRK1A (unknown origin) by TR-FRET assay
parameter_measured: IC50 (µM)
Response body: numeric value in µM, unit text excluded.

[Q] // IC50 lookup, key: Cc1nccc2c1[nH]c1cc(O)ccc12
[A] 0.07

* * *

system: H4; experiment: Antiproliferative activity against human H4 cells assessed as reduction in cell viability incubated for 72 hrs by Presto-Blue cell viability assay; format: functional, cell-based; conditions: H4, 72 h
parameter_measured: pIC50
Note: pIC50 values are expressed as the negative base-10 logarithm of concentration in M.

[Q] // pIC50 lookup, key: COc1ccc2c(c1)[nH]c1c(C)nccc12
[A] 5.31

[Q] Which pIC50 value belongs to Cc1nccc2c1[nH]c1cc(O)ccc12 ?
[A] 4.96

* * *

tested on: C6; assay: Antiproliferative activity against rat C6 cells assessed as reduction in cell viability incubated foe 24 hrs by MTT assay; assay type: functional, cell-based; conditions: C6, 24 h
parameter_measured: IC50 (µM)
Report the figure in µM without appending any unit label.

[Q] What does the record list as IC50 for COc1cc2c[n+](C)c3c4cc5c(cc4ccc3c2cc1OC)OCO5.[Cl-] [NITIDINE CHLORIDE] ?
[A] 8

* * *

test system: U-87 MG; test: Antiproliferative activity against human U-87 MG cells assessed as reduction in cell viability incubated for 48 hrs by CCK-8 assay; format: functional, cell-based, U-87MG ATCC
parameter_measured: IC50 (µM)
Numbers only here, please. The scale is µM.

[Q] Consider the compound shown here: COc1cc2c[n+](C)c3c4cc5c(cc4ccc3c2cc1OC)OCO5.[Cl-] [NITIDINE CHLORIDE] What is its recorded IC50?
[A] 5

* * *

assay: Cytotoxicity against human U-343MG cells assessed as reduction in cell growth incubated for 48 hrs by MTT assay; assay type: functional, cell-based
Measured pIC50 values are reported for all entries that follow.
In textbook form, pIC50 equals minus log to base ten of the concentration in mol/L.

Consider the reported pIC50 for these compounds:
{"mol_smiles": "CN[C@H]1C[C@H](OC)C=C[C@@]12C(=O)N(CCCC(=O)O)Cc1cc3c(cc12)OCO3", "pIC50": 4.91}
{"mol_smiles": "CO[C@@H]1C=C[C@@]23c4cc5c(cc4CN(CCc4ccc(O)cc4)[C@@H]2CN(C)[C@H]3C1)OCO5", "pIC50": 4.36}

Would you kindly look at the next entry?
[Q] Which pIC50 is reported for this compound? CO[C@@H]1C=C[C@@]23c4cc5c(cc4CN(CCc4ccccc4)[C@@H]2CN(C)[C@H]3C1)OCO5
[A] 4.84

* * *

test system: U-118-MG; experiment: Antiproliferative activity against human U-118-MG cells assessed as reduction in inhibition of cell growth incubated for 72 hrs by MTT assay; assay type: functional, cell-based
parameter_measured: IC50 (µM)
Your answer is read as µM, so omit the unit and give the number.

[Q] What IC50 value was documented for this compound, COc1ccc2c(c1OC)C(=O)O[C@@H]2[C@H]1c2c(cc3c(c2OC)OCO3)CCN1C ?
[A] 91

* * *

system: C6; experiment: Antiproliferative activity against rat C6 cells assessed as reduction in cell growth measured for 96 hrs by WST-1 assay; type: functional, cell-based; conditions: C6, 96 h
parameter_measured: IC50 (µM)
Express the result in µM but write the number alone.

[Q] Tell me the measured IC50 of COc1ccc2c(c1OC)C(=O)O[C@@H]2[C@H]1c2c(cc3c(c2OC)OCO3)CCN1C [NOSCAPINE] , please.
[A] 250

* * *

tested on: U-251; assay: Cytotoxicity against human U-251MG cells assessed as reduction in cell growth incubated for 72 hrs by MTT assay; assay type: functional, cell-based; conditions: U-251, 72 h
parameter_measured: pIC50
The value called pIC50 is obtained by taking minus log10 of the concentration in mol/L.

[Q] Which pIC50 value is on record for COc1ccc2c3c(c4cc(OC)c(OC)cc4c2c1)CN1CCC[C@H]1C3 ?
[A] 5.48

* * *

tested on: U-87 MG; assay: Antiproliferative activity against human U-87 MG cells assessed as reduction in cell viability incubated for 72 hrs by Presto-Blue cell viability assay; assay type: functional, cell-based, U-87MG ATCC
parameter_measured: pIC50
Remember the convention: pIC50 equals -log10 of concentration in molar.

{"compound": "Cc1nccc2c1[nH]c1cc(O)ccc12", "system_tested": "U-87 MG", "parameter_measured": "pIC50", "reported_result": 4.72}

# input for lookup
[Q] Would you mind telling me what pIC50 value was observed for COc1ccc2c(c1)[nH]c1c(C)nccc12 [HARMINE] ?
[A] 4.34
